experiment: Cmax in mouse at 100 mg/kg, po administered as single dose after 5 hrs by HPLC-MS/MS analysis; assay type: ADME, organism-based; set-up: dose 100 mg/kg, route oral; conditions: in vivo
reportedProperty: Cmax (ng/mL)
Hi! Could you send only the number? It should be in ng/mL, unit omitted.

For the compound Cc1cc(C)cc(NC(=O)c2cnn(-c3ccc(C(C)C)cc3)c2C2CCNCC2)c1 , what Cmax is on record? 4410

###

molecular target: Matrix metalloproteinase-9 (Homo sapiens, UniProt P14780); test: Inhibition of human MMP-9 activity in human MDA-MB-231 cells assessed as ECM degradation after 24 hrs by gelatin zymography assay
Sequence (P14780 whole entry): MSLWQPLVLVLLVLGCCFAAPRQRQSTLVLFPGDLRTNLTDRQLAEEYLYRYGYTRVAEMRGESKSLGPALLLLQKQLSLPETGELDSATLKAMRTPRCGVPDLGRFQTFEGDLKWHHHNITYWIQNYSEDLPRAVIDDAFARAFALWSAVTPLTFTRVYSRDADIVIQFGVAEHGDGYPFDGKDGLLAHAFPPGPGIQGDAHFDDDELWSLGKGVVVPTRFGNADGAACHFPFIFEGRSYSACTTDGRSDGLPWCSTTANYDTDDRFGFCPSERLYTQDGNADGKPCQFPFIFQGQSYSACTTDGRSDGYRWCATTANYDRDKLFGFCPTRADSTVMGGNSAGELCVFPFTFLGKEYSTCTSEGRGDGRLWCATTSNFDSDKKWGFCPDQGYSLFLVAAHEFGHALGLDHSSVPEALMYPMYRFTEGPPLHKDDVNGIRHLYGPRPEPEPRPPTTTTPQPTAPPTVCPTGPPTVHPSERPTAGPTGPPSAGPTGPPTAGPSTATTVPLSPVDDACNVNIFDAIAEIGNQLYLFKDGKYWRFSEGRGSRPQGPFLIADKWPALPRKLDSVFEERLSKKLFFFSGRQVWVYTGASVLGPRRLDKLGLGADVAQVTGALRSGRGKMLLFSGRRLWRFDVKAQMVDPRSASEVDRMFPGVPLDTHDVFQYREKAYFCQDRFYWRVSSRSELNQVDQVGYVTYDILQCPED
reportedProperty: IC50

Reported IC50 for Cc1cc(C)cc(NC(=O)c2cnn(-c3ccc(C(C)C)cc3)c2C2CCNCC2)c1 : what is it? 25 µM

###

test: Apparent oral clearance in mouse at 50 mg/kg administered as single dose by HPLC-MS/MS analysis; conditions: in vivo
reportedProperty: CL/F (mL/min)
# output: bare number, implied unit mL/min

// returns reported CL/F for input Cc1cc(C)cc(NC(=O)c2cnn(-c3ccc(C(C)C)cc3)c2C2CCNCC2)c1 0.7

###

assay: AUC (0 to infinity) in mouse at 50 mg/kg, po administered as single dose by HPLC-MS/MS analysis; settings: plasma
reportedProperty: AUC(0-inf) (ng·h/mL)
Your answer should be a plain number; it is taken to be in ng·h/mL.

Look up AUC(0-inf): Cc1cc(C)cc(NC(=O)c2cnn(-c3ccc(C(C)C)cc3)c2C2CCNCC2)c1 47200

###

tested on: MDA-MB-231; experiment: Antiproliferative activity against human MDA-MB-231 cells assessed as decrease in cell viability after 3 days by MTT assay; format: functional, cell-based; settings: MDA-MB-231, 72 h
reportedProperty: pIC50
Value format note: pIC50 is -log10 of concentration (mol/L); just state the number.

Request the reported pIC50 associated with Cc1cc(C)cc(NC(=O)c2cnn(-c3ccc(C(C)C)cc3)c2C2CCNCC2)c1 5.22

###

assay: Tmax in mouse at 100 mg/kg, po administered as single dose by HPLC-MS/MS analysis; type: ADME, organism-based; parameters: dose 100 mg/kg, route oral; details: in vivo
reportedProperty: Tmax (h)
The response must be a number in h with no trailing unit.

Which measured Tmax value corresponds to Cc1cc(C)cc(NC(=O)c2cnn(-c3ccc(C(C)C)cc3)c2C2CCNCC2)c1 ? 1

###

experiment: Half life in mouse at 100 mg/kg, po administered as single dose by HPLC-MS/MS analysis; assay type: ADME, organism-based; set-up: dose 100 mg/kg, route oral; conditions: in vivo
reportedProperty: half-life (h)
Unit h implied. Number only.

Please report the recorded half-life for Cc1cc(C)cc(NC(=O)c2cnn(-c3ccc(C(C)C)cc3)c2C2CCNCC2)c1 . 2.18
